procedure_details: Inhibition of yeast alpha glucosidase in phosphate buffer after 0.5 hrs by spectrophotometry
Parameters: species or system Saccharomyces
pIC50: −log10 of the molar value.
A collection of compounds and their measured pIC50
experimental_readout: pIC50

chemical_string=O=c1c2c(O)cc(O)cc2oc2ccc3ccccc3c12 experimental_readout=pIC50 test_value=4.40
chemical_string=O=c1c2ccccc2oc2cc(O)cc(O)c12 experimental_readout=pIC50 test_value=3.79
chemical_string=CCCCCCCOc1cc(O)c2c(=O)c3ccccc3oc2c1 experimental_readout=pIC50 test_value=3.94
chemical_string=O=c1c2ccccc2oc2c3c(cc(O)c12)OCCC3 experimental_readout=pIC50 test_value=3.70
chemical_string=COc1cc(O)c2c(=O)c3ccccc3oc2c1 experimental_readout=pIC50 test_value=3.76
chemical_string=CC(=O)Oc1cc(OC(C)=O)c2c(=O)c3cc(OC(C)=O)ccc3oc2c1 experimental_readout=pIC50 test_value=4.33
chemical_string=O=c1c2ccccc2oc2cccc(O)c12 experimental_readout=pIC50 test_value=3.75
